Value source: paper PMC10786891

Target: T1, EsCas13d, nuclease-dead (Eubacterium siraeum, UniProt B0MS50, R295A;H300A;R849A;H854A)
T1 sequence: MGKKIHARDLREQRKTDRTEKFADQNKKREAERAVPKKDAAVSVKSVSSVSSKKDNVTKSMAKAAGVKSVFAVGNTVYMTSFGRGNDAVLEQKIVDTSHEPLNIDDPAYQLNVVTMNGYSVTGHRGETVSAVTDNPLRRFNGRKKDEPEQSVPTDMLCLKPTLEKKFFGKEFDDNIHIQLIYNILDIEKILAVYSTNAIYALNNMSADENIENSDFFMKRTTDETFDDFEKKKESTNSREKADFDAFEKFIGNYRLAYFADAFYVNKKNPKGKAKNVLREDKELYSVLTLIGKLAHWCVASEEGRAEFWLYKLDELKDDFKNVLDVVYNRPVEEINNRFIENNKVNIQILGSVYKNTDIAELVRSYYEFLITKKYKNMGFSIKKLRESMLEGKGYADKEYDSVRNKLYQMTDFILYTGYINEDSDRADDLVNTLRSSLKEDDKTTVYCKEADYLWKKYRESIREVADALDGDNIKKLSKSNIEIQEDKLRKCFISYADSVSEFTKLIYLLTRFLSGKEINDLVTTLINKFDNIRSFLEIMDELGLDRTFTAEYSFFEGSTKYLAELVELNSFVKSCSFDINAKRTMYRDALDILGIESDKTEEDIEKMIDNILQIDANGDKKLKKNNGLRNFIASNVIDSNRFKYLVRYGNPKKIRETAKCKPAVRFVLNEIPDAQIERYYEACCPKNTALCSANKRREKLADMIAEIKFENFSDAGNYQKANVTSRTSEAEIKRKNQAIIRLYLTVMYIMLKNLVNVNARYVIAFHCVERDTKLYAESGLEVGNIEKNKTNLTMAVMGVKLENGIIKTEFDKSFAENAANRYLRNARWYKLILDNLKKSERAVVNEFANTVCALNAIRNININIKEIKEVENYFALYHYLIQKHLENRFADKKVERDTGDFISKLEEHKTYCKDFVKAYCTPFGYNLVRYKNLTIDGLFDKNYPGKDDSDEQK
Test: crRNA (strand 1, pre-loaded); Mg2+; 40 mM Tris-HCl pH 7.5, 150 mM NaCl, 6 mM MgCl2, 1 mM DTT, 0.1% Tween-20, 0.2 mg/ml BSA; 25 C; 10 min per concentration, then washed
Conditions: tags: His6-TwinStrep-SUMO cleaved; N-terminal SNAP kept (SNAP-Surface 488); label: 3' end held by stalled T7 RNA polymerase
Give Kd for every item shown.
Give bare numbers, in nM.

>  <binder>
target 2 MT 5'PFS UGC 3'PFS AUC (mixed) RNA 1: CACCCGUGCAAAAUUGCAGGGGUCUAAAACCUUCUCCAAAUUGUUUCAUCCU RNA 2: GGGAAUGGAUCCACAUCUACGAAUUCUGCAGGAUGAAACAAUUUGGAGAAGAUCAGAUCGGAAGAGCACACGU

>  <Kd / nM>
33

$$$$

# per-item lookup of Kd; items listed below
1. target 2 MT 5'PFS CGC 3'PFS CUC (mixed) RNA 1: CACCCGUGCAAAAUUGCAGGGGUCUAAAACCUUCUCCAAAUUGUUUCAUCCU RNA 2: GGGAAUGGAUCCACAUCUACGAAUUCCGCAGGAUGAAACAAUUUGGAGAAGCUCAGAUCGGAAGAGCACACGU
2. target 1 C7G,G13U (mixed) RNA 1: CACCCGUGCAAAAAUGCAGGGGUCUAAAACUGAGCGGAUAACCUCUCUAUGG RNA 2: GGGAAUGGAUCCACAUCUACGAAUUCGUACCAUAGAGAUGUUAUGCGCUCACCGAGAUCGGAAGAGCACACGU
3. target 1 insG 3' of 14,insC 3' of 14 (mixed) RNA 1: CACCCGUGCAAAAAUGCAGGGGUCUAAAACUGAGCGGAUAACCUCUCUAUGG RNA 2: GGGAAUGGAUCCACAUCUACGAAUUCGUACCAUAGAGAGCGGUUAUCCGCUCACCGAGAUCGGAAGAGCACACGU

A.
1. 9.6
2. 54
3. 34
